target: Translocator protein (Rattus norvegicus); test: Displacement of [3H]PK11195 from TSPO in rat kidney mitochondrial membranes at 1 uM by competitive binding assay; type: cell membranes; conditions: Membrane

- molecule: "CCC(C)N(C)C(=O)c1nc(-c2ccccc2Cl)c2cc(Cl)ccc2n1 (configuration not stated)"
  assayed_target: "Translocator protein (Rattus norvegicus)"
  unit_abbrev: "%"
  inhibition: 43
- molecule: "CCC(C)NC(=O)c1nc(-c2ccccc2)c2ccccc2n1 (configuration not stated)"
  assayed_target: "Translocator protein (Rattus norvegicus)"
  unit_abbrev: "%"
  inhibition: 0
- molecule: "O=C(c1nc(-c2ccccc2)c2cc(Cl)ccc2n1)N1CCCC1"
  assayed_target: "Translocator protein (Rattus norvegicus)"
  unit_abbrev: "%"
  inhibition: 43
- molecule: "CCC(C)NC(=O)c1nc(-c2ccccc2)c2cc(Cl)ccc2n1 (configuration not stated)"
  assayed_target: "Translocator protein (Rattus norvegicus)"
  unit_abbrev: "%"
  inhibition: 0
- molecule: "O=C(c1nc(-c2ccccc2)c2cc(Cl)ccc2n1)N1CCCCC1"
  assayed_target: "Translocator protein (Rattus norvegicus)"
  unit_abbrev: "%"
  inhibition: 46
- molecule: "CCC(C)N(C)C(=O)c1nc(-c2ccccc2)c2cc(Cl)ccc2n1 (configuration not stated)"
  assayed_target: "Translocator protein (Rattus norvegicus)"
  unit_abbrev: "%"
  inhibition: 22
- molecule: "O=C(c1nc(-c2ccccc2Cl)c2cc(Cl)ccc2n1)N1CCCC1"
  assayed_target: "Translocator protein (Rattus norvegicus)"
  unit_abbrev: "%"
  inhibition: 73
- molecule: "CCC(C)NC(=O)c1nc(-c2ccccc2Cl)c2ccccc2n1 (configuration not stated)"
  assayed_target: "Translocator protein (Rattus norvegicus)"
  unit_abbrev: "%"
  inhibition: 63
- molecule: "CCC(C)NC(=O)c1nc(-c2ccc(Cl)cc2)c2ccccc2n1 (configuration not stated)"
  assayed_target: "Translocator protein (Rattus norvegicus)"
  unit_abbrev: "%"
  inhibition: 37
- molecule: "CC(C)N(C)C(=O)c1nc(-c2ccccc2Cl)c2cc(Cl)ccc2n1"
  assayed_target: "Translocator protein (Rattus norvegicus)"
  unit_abbrev: "%"
  inhibition: 0
- molecule: "O=C(c1nc(-c2ccccc2Cl)c2ccccc2n1)N1CCCC1"
  assayed_target: "Translocator protein (Rattus norvegicus)"
  unit_abbrev: "%"
  inhibition: 70
- molecule: "CCC(C)NC(=O)c1nc(-c2ccc(Cl)cc2)c2cc(Cl)ccc2n1 (configuration not stated)"
  assayed_target: "Translocator protein (Rattus norvegicus)"
  unit_abbrev: "%"
  inhibition: 49

----------
organism: Rattus norvegicus; experiment: Displacement of [3H]flumazenil from central benzodiazepine receptor in rat cerebral cortex membranes at 10 uM after 90 mins by competitive binding assay; format: cell membranes; conditions: Membrane

- compound: "CCCCCN(CCCCC)C(=O)c1nc(-c2ccccc2)c2ccccc2n1"
  unit_abbrev: "%"
  inhibition: 0
- compound: "CC(C)N(C)C(=O)c1nc(-c2ccccc2)c2cc(Cl)ccc2n1"
  unit_abbrev: "%"
  inhibition: 0
- compound: "O=C(c1nc(-c2ccccc2Cl)c2ccccc2n1)N1CCCCCC1"
  unit_abbrev: "%"
  inhibition: 0
- compound: "O=C(c1nc(-c2ccc(Cl)cc2)c2ccccc2n1)N1CCCC1"
  unit_abbrev: "%"
  inhibition: 0
- compound: "CC(C)N(C)C(=O)c1nc(-c2ccccc2Cl)c2ccccc2n1"
  unit_abbrev: "%"
  inhibition: 0
- compound: "CCC(C)N(C)C(=O)c1nc(-c2ccccc2)c2cc(Cl)ccc2n1 (stereo not drawn)"
  unit_abbrev: "%"
  inhibition: 0
- compound: "CC[C@H](C)N(C)C(=O)c1nc(-c2ccccc2Cl)c2ccccc2n1"
  unit_abbrev: "%"
  inhibition: 0
- compound: "CC[C@@H](C)N(C)C(=O)c1nc(-c2ccccc2)c2ccccc2n1"
  unit_abbrev: "%"
  inhibition: 0

----------
organism: Rattus norvegicus; assay: Displacement of [3H]flumazenil from central benzodiazepine receptor in rat cerebral cortex membranes at 10 uM after 90 mins by competitive binding assay; type: cell membranes; conditions: Membrane

- chem_smiles: "CC(C)N(C)C(=O)c1nc(-c2ccccc2)c2ccccc2n1"
  unit_abbrev: "%"
  inhibition: 0
- chem_smiles: "CC[C@H](C)N(C)C(=O)c1nc(-c2ccc(Cl)cc2)c2ccccc2n1"
  unit_abbrev: "%"
  inhibition: 0
- chem_smiles: "CC(C)CN(C)C(=O)c1nc(-c2ccc(Cl)cc2)c2cc(Cl)ccc2n1"
  unit_abbrev: "%"
  inhibition: 0
